assay: Apparent permeability across basolateral to apical side in human Caco-2 cells assessed as drug recovery at 10 uM incubated for 2 hrs by LC-MS/MS analysis
ASSAY READOUT: recovery at 2 h, 10 µM (%)
State just the number; it will be interpreted in %.

Req: Give the reported value of recovery at 2 h, 10 µM for this record: `C[C@H]1O[C@@H](O[C@H]2[C@@H](O)C[C@H](O[C@H]3[C@@H](O)C[C@H](O[C@H]4CC[C@@]5(C)[C@H](CC[C@@H]6[C@@H]5C[C@@H](O)[C@]5(C)[C@@H](C7=CC(=O)OC7)CC[C@]65O)C4)O[C@@H]3C)O[C@@H]2C)C[C@H](O)[C@@H]1O`
Resp: 103

###

assay: Apparent permeability across apical to basolateral side in human Caco-2 cells assessed as drug recovery at 2 uM incubated for 2 hrs by LC-MS/MS analysis; format: ADME, cell-based; conditions: read-out: Drug recovery
ASSAY READOUT: recovery at 2 h, 2 µM (%)
Express the result in % but write the number alone.

{"MOLECULE": "CC(C)(C)NCC(O)COc1cccc2c1CC(O)C(O)C2 (stereo not drawn)", "ASSAY READOUT": "recovery at 2 h, 2 µM", "DATA VALUE": 102}

The record that follows has no recovery at 2 h, 2 µM shown yet.
Req: Look up and report measured recovery at 2 h, 2 µM for this entry: COCCc1ccc(OCC(O)CNC(C)C)cc1 (stereo not drawn)
Resp: 104

###

Target: UniProt Q8TDU6
Sequence (Q8TDU6 whole entry): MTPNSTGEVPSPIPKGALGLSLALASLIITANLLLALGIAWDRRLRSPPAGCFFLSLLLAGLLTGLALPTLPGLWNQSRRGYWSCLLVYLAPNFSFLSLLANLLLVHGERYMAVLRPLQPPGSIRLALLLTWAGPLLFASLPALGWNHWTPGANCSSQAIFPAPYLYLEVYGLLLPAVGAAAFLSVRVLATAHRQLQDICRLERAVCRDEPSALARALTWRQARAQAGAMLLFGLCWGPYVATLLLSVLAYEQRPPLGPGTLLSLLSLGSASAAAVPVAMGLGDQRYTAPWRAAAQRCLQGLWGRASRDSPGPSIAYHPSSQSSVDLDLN
Test: Agonist activity at human TGR5 expressed in HEK293T cells assessed as cAMP production incubated for 30 mins by HTRF assay
ASSAY READOUT: pEC50
Note: pEC50 values are expressed as the negative base-10 logarithm of concentration in M.

{"SMILES REPR": "O=C(CCCCCN1C(=O)C=CC1=O)NCCCCCCNC(=O)CCc1cc(Cl)c(Oc2ccncc2C(=O)N2CCN(C3CC3)c3ccccc32)cc1Cl", "pEC50": 6.78}
{"SMILES REPR": "O=C(CCCCCN1C(=O)C=CC1=O)NCCCCNC(=O)CCc1cc(Cl)c(Oc2ccncc2C(=O)N2CCN(C3CC3)c3ccccc32)cc1Cl", "pEC50": 6.70}

For the next question, use this compound.
Req: Complete the entry with pEC50 for `O=C(CCCCCN1C(=O)C=CC1=O)NCCCCCCCCNC(=O)CCc1cc(Cl)c(Oc2ccncc2C(=O)N2CCN(C3CC3)c3ccccc32)cc1Cl`
Resp: 6.45
